Measured pIC50 by item
target.entity: human C3a receptor (C3aR) (Homo sapiens)
Construct: expressed in transfected cells
Sequence (Q16581 1-482): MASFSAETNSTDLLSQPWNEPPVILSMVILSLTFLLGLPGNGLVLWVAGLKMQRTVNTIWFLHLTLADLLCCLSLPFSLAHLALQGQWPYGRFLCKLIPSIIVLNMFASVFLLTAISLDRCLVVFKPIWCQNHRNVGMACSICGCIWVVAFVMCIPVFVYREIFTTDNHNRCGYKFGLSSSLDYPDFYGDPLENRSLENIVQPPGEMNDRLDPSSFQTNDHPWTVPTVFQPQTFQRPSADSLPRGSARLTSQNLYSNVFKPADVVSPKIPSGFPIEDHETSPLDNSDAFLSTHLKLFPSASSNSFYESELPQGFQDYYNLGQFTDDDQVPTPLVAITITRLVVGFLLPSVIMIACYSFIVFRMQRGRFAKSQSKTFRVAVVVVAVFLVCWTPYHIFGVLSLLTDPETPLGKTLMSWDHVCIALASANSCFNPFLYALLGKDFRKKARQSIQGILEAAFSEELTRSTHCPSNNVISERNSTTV
assay: Inhibition of human [125I]-C3a binding to human C3a receptor (SPA, membranes of HEK293 cells expressing recombinant C3aR)
condition.label: 0.1 nM [125I]-C3a, 3 hours at room temperature; Table 3
pIC50: −log10 of the molar value.

# example entries with known answers
N=C(N)NCCC[C@H](NC(=O)c1ccc(=O)n(Cc2ccccc2)c1)C(=O)O: 6.30 to 7.30
N=C(N)NCCC[C@H](NC(=O)c1ccn(Cc2ccccc2)c(=O)c1)C(=O)O: 6.30 to 7.30
N=C(N)NCCC[C@H](NC(=O)c1cccc(=O)n1Cc1ccccc1)C(=O)O: 6.30 to 7.30
CC(C)(C(=O)NC(c1ccccc1)c1ccccc1)C(=O)N[C@@H](CCCNC(=N)N)C(=O)O: > 7.30
N=C(N)NCCC[C@H](NC(=O)c1ccc(=O)n(C(c2ccccc2)c2ccccc2)c1)C(=O)O: 4.70 to 6.30
N=C(N)NCCC[C@H](NC(=O)c1cccc(Cc2ccccc2)c1)C(=O)O: 6.30 to 7.30

Recorded pIC50 (compound N=C(N)NCCC[C@H](NC(=O)c1ccc(Cc2ccccc2)cc1)C(=O)O ): 6.30 to 7.30

Recorded pIC50 (compound N=C(N)NCCC[C@H](NC(=O)c1ccn(C(c2ccccc2)c2ccccc2)c(=O)c1)C(=O)O ): 6.30 to 7.30

----------
target.entity: human C3a receptor (C3aR) (Homo sapiens)
Construct: expressed in transfected cells
assay: Inhibition of human [125I]-C3a binding to human C3a receptor (SPA, membranes of HEK293 cells expressing recombinant C3aR)
condition.label: 0.1 nM [125I]-C3a, 3 hours at room temperature; Table 6
pIC50: −log10 of the molar value.
parameter.measured: pIC50

CC(=N)NCCC[C@H](NC(=O)c1ccc(C(c2ccccc2Cl)c2ccccc2Cl)s1)C(=O)O: 4.70 to 6.30

Here CC(C)C(=N)NCCC[C@H](NC(=O)c1ccc(C(c2ccccc2)c2ccccc2)s1)C(=O)O was tested on human C3a receptor (C3aR) (Homo sapiens), and its pIC50 came to 4.70 to 6.30

Here CC(=N)NCCC[C@H](NC(=O)c1cccn(Cc2ccc(Br)cc2)c1=O)C(=O)O was tested on human C3a receptor (C3aR) (Homo sapiens), and its pIC50 came to 6.30 to 7.30

Here CC(=O)NCCC[C@H](NC(=O)c1cccn(C(c2ccccc2)c2ccccc2)c1=O)C(=O)O was tested on human C3a receptor (C3aR) (Homo sapiens), and its pIC50 came to 6.30 to 7.30
